These measurements were taken from ChEMBL document CHEMBL2424622.

tested on: eIF-2-alpha kinase GCN2 (Homo sapiens), Q9P2K8 [S808G]; assay: Competitive binding affinity to GCN2 kinase domain 2 S808G mutant (unknown origin) at 10 uM in presence of ATP relative to control
Property Measured: inhibition (%)
One number for each entry, in %.

Consider the reported inhibition for these compounds:
# Test Smiles, Result Units, inhibition
records = [
    ("O[C@H]1CC[C@H](Nc2nccc(-c3n[nH]c4ccccc34)n2)CC1", "%", 100),
    ("O[C@H]1CC[C@H](Nc2nccc(-n3nnc4ccccc43)n2)CC1", "%", 99),
    ("O[C@H]1CC[C@H](Nc2nccc(-n3ccc4ccccc43)n2)CC1", "%", 83),
]

Next compound, please.
Problem: Tell me the measured inhibition of `O[C@H]1CC[C@H](Nc2nccc(-n3ncc4ccccc43)n2)CC1` , please.
Result: 100

====

target: Mitogen-activated protein kinase 9 (Homo sapiens)
Sequence (P45984 whole entry): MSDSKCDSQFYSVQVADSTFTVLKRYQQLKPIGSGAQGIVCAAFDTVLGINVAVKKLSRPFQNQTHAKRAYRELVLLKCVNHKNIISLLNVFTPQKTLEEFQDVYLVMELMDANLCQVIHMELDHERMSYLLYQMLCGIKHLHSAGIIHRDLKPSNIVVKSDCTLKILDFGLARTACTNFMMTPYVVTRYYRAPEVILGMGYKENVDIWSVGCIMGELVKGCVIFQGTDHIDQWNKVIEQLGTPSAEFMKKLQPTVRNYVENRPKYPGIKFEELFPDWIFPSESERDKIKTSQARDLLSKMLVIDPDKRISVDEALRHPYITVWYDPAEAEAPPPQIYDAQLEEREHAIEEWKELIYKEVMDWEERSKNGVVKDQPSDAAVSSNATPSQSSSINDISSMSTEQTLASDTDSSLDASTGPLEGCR
Kindly supply the reported IC50 values for the records listed here.
Answers are plain numbers, in nM.

Consider the reported IC50 for these compounds:
# Compound, IC50 (nM)
records = [
    ("c1ccc2c(c1)nnn2-c1ccnc(NC2CCCCC2)n1", 390),
    ("OCCCOc1cccc2c1cnn2-c1ccnc(N[C@H]2CC[C@H](O)CC2)n1", 139),
]

Parameter requested: IC50. Apply to each item below.
1. CS(=O)(=O)CCCOc1cccc2c1ccn2-c1ccnc(N[C@H]2CC[C@H](C(=O)N3CC[C@@H](F)C3)CC2)n1
2. OCC(O)COc1cccc2c1cnn2-c1ccnc(N[C@H]2CC[C@H](O)CC2)n1 (stereo not given in full)
3. CS(=O)(=O)CCCOc1cccc2c1ccn2-c1ccnc(N[C@H]2CC[C@H](C(=O)N3CCC(F)(F)CC3)CC2)n1

Result:
[64, 194, 51]

====

target: cAMP-dependent protein kinase catalytic subunit alpha (Homo sapiens) (UniProt P17612); test: Competitive binding affinity to PKAC-alpha (unknown origin) at 10 uM in presence of ATP relative to control
Property Measured: inhibition

Parameter requested: inhibition. Apply to each item below.
1. O[C@H]1CC[C@H](Nc2nccc(-n3nnc4ccccc43)n2)CC1
2. O[C@H]1CC[C@H](Nc2nccc(-c3n[nH]c4ccccc34)n2)CC1
3. O[C@H]1CC[C@H](Nc2nccc(-n3ccc4ccccc43)n2)CC1

Result:
1: < 50%; 2: < 50%; 3: < 50%

====

target: AP2-associated protein kinase 1 (Homo sapiens) (UniProt Q2M2I8); assay: Competitive binding affinity to AAK1 (unknown origin) at 10 uM in presence of ATP relative to control
Sequence (Q2M2I8 whole entry, looked up): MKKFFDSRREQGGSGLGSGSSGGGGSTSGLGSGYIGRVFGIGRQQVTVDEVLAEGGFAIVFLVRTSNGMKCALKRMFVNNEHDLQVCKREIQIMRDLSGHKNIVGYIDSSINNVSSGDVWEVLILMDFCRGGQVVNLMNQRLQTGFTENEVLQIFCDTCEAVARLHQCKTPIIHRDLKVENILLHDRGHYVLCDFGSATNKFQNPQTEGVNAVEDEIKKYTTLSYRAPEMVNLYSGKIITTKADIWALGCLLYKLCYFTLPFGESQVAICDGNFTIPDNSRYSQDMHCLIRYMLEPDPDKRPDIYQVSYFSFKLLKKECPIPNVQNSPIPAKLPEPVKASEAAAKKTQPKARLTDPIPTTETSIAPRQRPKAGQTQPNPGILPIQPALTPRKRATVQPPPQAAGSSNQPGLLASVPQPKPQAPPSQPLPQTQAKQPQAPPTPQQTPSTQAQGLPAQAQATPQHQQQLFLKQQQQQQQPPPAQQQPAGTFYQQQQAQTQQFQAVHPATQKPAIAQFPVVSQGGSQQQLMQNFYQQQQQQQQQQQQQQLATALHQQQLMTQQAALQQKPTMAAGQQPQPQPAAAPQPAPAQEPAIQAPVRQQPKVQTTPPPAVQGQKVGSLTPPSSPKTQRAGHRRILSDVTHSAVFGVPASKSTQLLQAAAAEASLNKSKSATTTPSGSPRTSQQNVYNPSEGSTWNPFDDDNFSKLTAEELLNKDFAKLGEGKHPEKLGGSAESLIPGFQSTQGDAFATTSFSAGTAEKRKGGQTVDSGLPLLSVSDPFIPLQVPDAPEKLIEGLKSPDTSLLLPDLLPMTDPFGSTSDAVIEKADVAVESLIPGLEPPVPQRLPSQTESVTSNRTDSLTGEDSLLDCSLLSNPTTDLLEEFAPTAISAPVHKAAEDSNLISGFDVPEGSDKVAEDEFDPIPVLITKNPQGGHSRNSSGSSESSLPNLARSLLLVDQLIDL
Property Measured: inhibition (%)
One number for each entry, in %.

# Test Smiles, inhibition [%]
rows = [
    ("N[C@H]1CC[C@H](Nc2nccc(-n3nnc4ccccc43)n2)CC1", 99),
    ("O[C@H]1CC[C@H](Nc2nccc(-c3n[nH]c4ccccc34)n2)CC1", 99),
    ("O=C([C@H]1CC[C@H](Nc2nccc(-n3nnc4ccccc43)n2)CC1)N1CCOCC1", 98),
    ("O[C@H]1CC[C@H](Nc2nccc(-n3nnc4ccccc43)n2)CC1", 98),
    ("O[C@H]1CC[C@H](Nc2nccc(-n3ncc4ccccc43)n2)CC1", 95),
]

Problem: Tell me the measured inhibition of `O[C@H]1CC[C@H](Nc2nccc(-n3ccc4ccccc43)n2)CC1` , please.
Result: 70

====

target: Ribosomal protein S6 kinase alpha-5 (Homo sapiens); experiment: Competitive binding affinity to RPS6KA5 kinase domain 1 (unknown origin) at 10 uM in presence of ATP relative to control
Property Measured: inhibition

# Test Smiles, inhibition
records = [
    ("O[C@H]1CC[C@H](Nc2nccc(-n3ccc4ccccc43)n2)CC1", "< 50%"),
    ("O=C([C@H]1CC[C@H](Nc2nccc(-n3nnc4ccccc43)n2)CC1)N1CCOCC1", "< 50%"),
]

Parameter requested: inhibition. Apply to each item below.
1. N[C@H]1CC[C@H](Nc2nccc(-n3nnc4ccccc43)n2)CC1
2. O[C@H]1CC[C@H](Nc2nccc(-n3ncc4ccccc43)n2)CC1
3. O[C@H]1CC[C@H](Nc2nccc(-n3nnc4ccccc43)n2)CC1
4. O[C@H]1CC[C@H](Nc2nccc(-c3n[nH]c4ccccc34)n2)CC1

Result:
1. 70%
2. < 50%
3. < 50%
4. < 50%

====

target: Serine/threonine-protein kinase 16 (Homo sapiens, UniProt O75716)
Sequence (O75716 whole entry): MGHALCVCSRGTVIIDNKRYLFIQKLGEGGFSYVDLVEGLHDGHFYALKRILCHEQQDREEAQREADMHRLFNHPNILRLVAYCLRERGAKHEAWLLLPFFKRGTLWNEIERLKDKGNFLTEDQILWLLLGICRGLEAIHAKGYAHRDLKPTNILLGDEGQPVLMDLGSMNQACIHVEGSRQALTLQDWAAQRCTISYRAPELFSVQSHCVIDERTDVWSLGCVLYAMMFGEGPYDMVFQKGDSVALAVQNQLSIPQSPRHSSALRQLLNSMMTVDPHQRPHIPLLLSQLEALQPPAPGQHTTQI
Property Measured: Kd (µM)
Numbers only, in µM.

Problem: Hello, I am looking for reported Kd with Serine/threonine-protein kinase 16 (Homo sapiens, UniProt O75716) for `CS(=O)(=O)CCCOc1cccc2c1ccn2-c1ccnc(N[C@H]2CC[C@H](C(=O)N3CCC(O)CC3)CC2)n1` . Could you help?
Result: 0.45

====

Kindly supply the reported inhibition values for the records listed here.
molecular target: Dual specificity protein kinase TTK (Homo sapiens) (UniProt P33981); test: Competitive binding affinity to TTK (unknown origin) at 10 uM in presence of ATP relative to control
Sequence (P33981 whole entry): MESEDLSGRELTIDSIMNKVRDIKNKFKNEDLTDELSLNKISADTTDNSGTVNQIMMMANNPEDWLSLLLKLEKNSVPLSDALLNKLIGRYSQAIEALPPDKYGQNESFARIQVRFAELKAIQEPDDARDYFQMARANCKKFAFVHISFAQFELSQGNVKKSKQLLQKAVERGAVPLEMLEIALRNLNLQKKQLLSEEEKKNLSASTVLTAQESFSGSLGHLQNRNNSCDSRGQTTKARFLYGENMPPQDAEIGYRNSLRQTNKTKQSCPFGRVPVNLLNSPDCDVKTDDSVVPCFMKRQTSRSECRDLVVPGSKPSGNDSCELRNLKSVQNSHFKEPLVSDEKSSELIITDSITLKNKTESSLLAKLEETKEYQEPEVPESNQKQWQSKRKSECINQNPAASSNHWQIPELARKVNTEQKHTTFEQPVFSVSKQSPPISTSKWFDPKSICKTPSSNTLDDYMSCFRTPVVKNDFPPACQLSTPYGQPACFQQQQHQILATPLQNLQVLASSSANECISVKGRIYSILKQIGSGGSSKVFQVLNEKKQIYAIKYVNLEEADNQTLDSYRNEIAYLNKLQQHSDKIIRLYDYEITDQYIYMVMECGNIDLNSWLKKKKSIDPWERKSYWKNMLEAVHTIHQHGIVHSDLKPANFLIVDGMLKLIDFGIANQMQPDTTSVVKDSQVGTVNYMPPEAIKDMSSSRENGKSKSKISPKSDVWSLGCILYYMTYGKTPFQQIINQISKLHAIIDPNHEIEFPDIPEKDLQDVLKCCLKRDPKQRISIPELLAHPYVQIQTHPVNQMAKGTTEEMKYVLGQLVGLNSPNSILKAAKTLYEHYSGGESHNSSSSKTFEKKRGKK
One number for each entry, in %.

Consider the reported inhibition for these compounds:
# Test Smiles, Measurement Target, Result Units, inhibition
measured = [
    ("O[C@H]1CC[C@H](Nc2nccc(-c3n[nH]c4ccccc34)n2)CC1", "Dual specificity protein kinase TTK (Homo sapiens) (UniProt P33981)", "%", 100),
    ("O[C@H]1CC[C@H](Nc2nccc(-n3ncc4ccccc43)n2)CC1", "Dual specificity protein kinase TTK (Homo sapiens) (UniProt P33981)", "%", 100),
    ("O=C([C@H]1CC[C@H](Nc2nccc(-n3nnc4ccccc43)n2)CC1)N1CCOCC1", "Dual specificity protein kinase TTK (Homo sapiens) (UniProt P33981)", "%", 98),
    ("O[C@H]1CC[C@H](Nc2nccc(-n3nnc4ccccc43)n2)CC1", "Dual specificity protein kinase TTK (Homo sapiens) (UniProt P33981)", "%", 99),
    ("N[C@H]1CC[C@H](Nc2nccc(-n3nnc4ccccc43)n2)CC1", "Dual specificity protein kinase TTK (Homo sapiens) (UniProt P33981)", "%", 96),
]

Next compound, please.
Problem: Tell me the measured inhibition of `O[C@H]1CC[C@H](Nc2nccc(-n3ccc4ccccc43)n2)CC1` , please.
Result: 84

====

Kindly supply the reported inhibition values for the records listed here.
target: Tyrosine-protein kinase Lyn (Homo sapiens); assay: Competitive binding affinity to LYN (unknown origin) at 10 uM in presence of ATP relative to control

Consider the reported inhibition for these compounds:
# Test Smiles, inhibition
records = [
    ("N[C@H]1CC[C@H](Nc2nccc(-n3nnc4ccccc43)n2)CC1", "< 50%"),
    ("O[C@H]1CC[C@H](Nc2nccc(-n3nnc4ccccc43)n2)CC1", "< 50%"),
    ("O[C@H]1CC[C@H](Nc2nccc(-n3ccc4ccccc43)n2)CC1", "< 50%"),
    ("O[C@H]1CC[C@H](Nc2nccc(-n3ncc4ccccc43)n2)CC1", "< 50%"),
    ("O[C@H]1CC[C@H](Nc2nccc(-c3n[nH]c4ccccc34)n2)CC1", "< 50%"),
]

Next compound, please.
Problem: Tell me the measured inhibition of `O=C([C@H]1CC[C@H](Nc2nccc(-n3nnc4ccccc43)n2)CC1)N1CCOCC1` , please.
Result: < 50%

====

target: Maternal embryonic leucine zipper kinase (Homo sapiens) (UniProt Q14680); test: Competitive binding affinity to MELK (unknown origin) at 10 uM in presence of ATP relative to control
Sequence (Q14680 whole entry, looked up): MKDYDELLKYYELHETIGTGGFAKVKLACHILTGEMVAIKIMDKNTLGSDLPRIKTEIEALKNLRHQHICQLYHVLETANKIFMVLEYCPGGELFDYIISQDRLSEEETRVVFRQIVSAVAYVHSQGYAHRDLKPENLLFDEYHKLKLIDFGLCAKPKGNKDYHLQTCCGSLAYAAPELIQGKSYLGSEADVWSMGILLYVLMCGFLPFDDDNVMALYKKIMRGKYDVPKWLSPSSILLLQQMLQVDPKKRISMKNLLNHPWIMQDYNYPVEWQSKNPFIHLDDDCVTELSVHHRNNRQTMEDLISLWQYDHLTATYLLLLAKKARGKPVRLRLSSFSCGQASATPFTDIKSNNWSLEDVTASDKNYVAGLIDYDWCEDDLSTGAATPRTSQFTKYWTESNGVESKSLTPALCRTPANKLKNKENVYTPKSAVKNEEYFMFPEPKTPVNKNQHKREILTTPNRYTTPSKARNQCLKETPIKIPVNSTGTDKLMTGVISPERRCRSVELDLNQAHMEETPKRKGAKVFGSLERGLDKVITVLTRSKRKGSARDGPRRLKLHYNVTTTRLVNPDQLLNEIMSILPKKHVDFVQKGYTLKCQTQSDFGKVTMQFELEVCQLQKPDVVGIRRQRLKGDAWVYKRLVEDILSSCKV
Property Measured: inhibition (%)
One number for each entry, in %.

# Test Smiles, Result Units, inhibition
measured = [
    ("O[C@H]1CC[C@H](Nc2nccc(-n3nnc4ccccc43)n2)CC1", "%", 94),
    ("O[C@H]1CC[C@H](Nc2nccc(-c3n[nH]c4ccccc34)n2)CC1", "%", 94),
]

Next compound, please.
Problem: Tell me the measured inhibition of `O[C@H]1CC[C@H](Nc2nccc(-n3ncc4ccccc43)n2)CC1` , please.
Result: 74

====

target: UniProtKB P07947; assay: Competitive binding affinity to YES (unknown origin) at 10 uM in presence of ATP relative to control
Sequence (P07947 2-543 limits assumed): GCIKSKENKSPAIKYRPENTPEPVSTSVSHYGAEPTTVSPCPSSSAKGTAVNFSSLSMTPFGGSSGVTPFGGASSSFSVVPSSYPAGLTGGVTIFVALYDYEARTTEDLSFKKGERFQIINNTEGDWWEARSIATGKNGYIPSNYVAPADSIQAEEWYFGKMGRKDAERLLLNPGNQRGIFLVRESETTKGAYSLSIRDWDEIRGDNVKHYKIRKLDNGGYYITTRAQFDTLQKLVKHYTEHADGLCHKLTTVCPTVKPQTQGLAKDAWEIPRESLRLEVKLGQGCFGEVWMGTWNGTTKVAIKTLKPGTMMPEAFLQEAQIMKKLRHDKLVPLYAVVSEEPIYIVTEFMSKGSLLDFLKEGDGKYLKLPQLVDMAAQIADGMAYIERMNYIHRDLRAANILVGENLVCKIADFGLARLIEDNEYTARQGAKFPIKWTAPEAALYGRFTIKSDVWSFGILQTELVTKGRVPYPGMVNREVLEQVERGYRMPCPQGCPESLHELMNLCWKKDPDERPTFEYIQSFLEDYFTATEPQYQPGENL
Property Measured: inhibition

Consider the reported inhibition for these compounds:
# Test Smiles, inhibition
rows = [
    ("O=C([C@H]1CC[C@H](Nc2nccc(-n3nnc4ccccc43)n2)CC1)N1CCOCC1", "< 50%"),
    ("O[C@H]1CC[C@H](Nc2nccc(-n3ncc4ccccc43)n2)CC1", "< 50%"),
    ("O[C@H]1CC[C@H](Nc2nccc(-n3ccc4ccccc43)n2)CC1", "< 50%"),
]

Parameter requested: inhibition. Apply to each item below.
1. O[C@H]1CC[C@H](Nc2nccc(-n3nnc4ccccc43)n2)CC1
2. N[C@H]1CC[C@H](Nc2nccc(-n3nnc4ccccc43)n2)CC1
3. O[C@H]1CC[C@H](Nc2nccc(-c3n[nH]c4ccccc34)n2)CC1

Result:
1: < 50%; 2: < 50%; 3: 78%
